Target: T1, human NMI (N-myc Interacting protein), recombinant protein (human, UniProt Q13287 1-307, limits assumed)
T1 construct: Gene ID: 9111; also called hNMI; antigen
T1 sequence (looked up): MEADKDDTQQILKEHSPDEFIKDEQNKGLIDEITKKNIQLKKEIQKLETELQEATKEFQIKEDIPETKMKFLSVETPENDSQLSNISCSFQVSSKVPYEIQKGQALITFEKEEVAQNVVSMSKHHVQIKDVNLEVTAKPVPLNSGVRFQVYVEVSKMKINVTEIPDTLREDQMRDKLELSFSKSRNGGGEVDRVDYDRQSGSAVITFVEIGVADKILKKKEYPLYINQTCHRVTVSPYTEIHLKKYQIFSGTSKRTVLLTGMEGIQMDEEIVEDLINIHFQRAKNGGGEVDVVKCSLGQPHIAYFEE
Test: sandwich ELISA; detection 94C4-1-biotin 1µg/mL; hNMI 1,562.500 pg/mL
MEASUREMENT NAME: OD450 (OD450)
Expressed in OD450, but write only the number.

Returns the measured OD450 for the input binder. Input: monoclonal antibody 240B10-1 (antibody, V domains shown, Rabbit monoclonal antibody) VH: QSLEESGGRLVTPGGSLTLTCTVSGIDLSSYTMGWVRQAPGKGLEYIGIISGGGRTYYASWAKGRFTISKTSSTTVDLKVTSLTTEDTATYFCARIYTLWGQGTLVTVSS VL: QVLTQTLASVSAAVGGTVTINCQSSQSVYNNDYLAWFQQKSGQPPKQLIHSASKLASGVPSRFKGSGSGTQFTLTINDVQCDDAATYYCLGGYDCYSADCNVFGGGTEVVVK
0.568

Returns the measured OD450 for the input binder. Input: monoclonal antibody B-8 (antibody, V domains shown, Rabbit monoclonal antibody; also called B8-1) VH: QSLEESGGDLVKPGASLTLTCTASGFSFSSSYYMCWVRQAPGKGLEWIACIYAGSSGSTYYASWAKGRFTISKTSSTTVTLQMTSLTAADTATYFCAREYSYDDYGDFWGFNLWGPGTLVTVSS VL: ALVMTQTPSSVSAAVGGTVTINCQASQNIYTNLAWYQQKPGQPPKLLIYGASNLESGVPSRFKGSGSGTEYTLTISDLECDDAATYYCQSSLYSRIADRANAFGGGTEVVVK
0.446

Returns the measured OD450 for the input binder. Input: monoclonal antibody 39B4 (antibody, V domains shown, Rabbit monoclonal antibody; also called 39B4-1) VH: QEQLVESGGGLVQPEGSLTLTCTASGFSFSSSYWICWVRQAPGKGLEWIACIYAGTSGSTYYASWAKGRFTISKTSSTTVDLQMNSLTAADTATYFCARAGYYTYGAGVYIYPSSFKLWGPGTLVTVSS VL: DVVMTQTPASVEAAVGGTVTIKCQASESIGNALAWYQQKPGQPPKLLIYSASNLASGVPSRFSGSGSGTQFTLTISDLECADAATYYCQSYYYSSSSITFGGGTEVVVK
0.547
